# procedureDetails: PhoP-dependent GFP reporter repression – Salmonella Typhimurium, primary screen (AID 1863);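 also: 0% = low Mg2+ inducing control and 100% = high Mg2+ repressing control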
# particulars: S. Typhimurium PhoP-regulated promoter GFP reporter, 4 h; at 50 µM; active compounds read high
In all, about 300,000 compounds went through this assay and about 480 (0.16%) were called active. These entries were drawn from the full list. Measured potencies and affinities stand elsewhere.
Would you kindly list inhibition for each of these molecules?
Numbers only, in %.

Consider the reported inhibition for these molecules:
COc1ccc(NC(=O)C2CCN(S(=O)(=O)c3ccc(OC)c(OC)c3)CC2)c(OC)c1 :: 5.61
COC(=O)CSc1nc(N)c(C#N)c(CC(C)C)c1C#N :: -5.81
S=c1[nH]c2ccccc2n2c(=S)[nH]nc12 :: 4.88
COc1ccccc1N1CCN(C(c2ccccc2)c2nnnn2CCc2ccccc2)CC1 (configuration not stated) :: 1.99
Cn1nnnc1SCc1nc2ccccc2s1 :: -6.44
Nc1ccc2c(c1)C(=O)c1ccccc1C2=O :: 8.76
COc1cccc2cc(CC(=O)c3cc(C)ccc3C)c(=O)oc12 :: -3.13
CN1C(=O)C(O)(CC(=O)c2cccs2)c2ccccc21 (configuration not stated) :: -3.39

Quick batch: inhibition for everything below.
1. CCC(c1nnnn1C(C)(C)CC)N(CCCN1CCOCC1)Cc1cc2cccc(C)c2[nH]c1=O (configuration not stated)
2. CC(CN1CCCCC1)OC(=O)C(C)(c1ccccc1)c1ccccc1 (configuration not stated)
3. O=C(Nc1cccc(Cl)c1)NC1CCS(=O)(=O)C1 (configuration not stated)
4. O=c1[nH]c2ccccc2n2cnnc12

**A:**
[1.45, -9.7, 0.08, 3.8]

----------
# procedureDetails: PhoP-dependent GFP reporter repression – Salmonella Typhimurium, primary screen (AID 1863);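 also: 0% = low Mg2+ inducing control and 100% = high Mg2+ repressing control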
# particulars: S. Typhimurium PhoP-regulated promoter GFP reporter, 4 h; at 50 µM; active compounds read high
Hit rate of the full screen: of about 300,000 compounds, about 480 (0.16%) were called active. A selection follows. Measured potencies and affinities stand elsewhere.
testReadout: inhibition (%)
Give bare numbers, in %.

Consider the reported inhibition for these molecules:
CCCCNC(=O)c1cn(CC)c2cc(N3CCN(C(=O)c4ccco4)CC3)c(F)cc2c1=O :: -7.68
CCCCCOC(=O)Cn1c(=O)oc2ccccc21 :: 5.08
CCC(=O)NC(=S)Nc1ccc(N2CCN(C(=O)c3ccc(Cl)cc3)CC2)cc1 :: 2.66
COc1cc(C(=O)NCc2cccc3ccccc23)ccc1OCc1ccccc1 :: -2.04
CC1(C)C(=O)Nc2ccccc2N1C(=O)c1ccc([N+](=O)[O-])cc1 :: 7.48

Batch of 7 molecules: report inhibition for each.
1. CN(Cc1cn(C)c2ccccc12)C(=S)Nc1cc(F)cc(F)c1
2. COc1cc(NC(=O)Cn2cnc(S(=O)(=O)N3CCC(C)CC3)c2)cc(OC)c1OC
3. Cc1ccccc1-n1c(SCC(=O)N/N=C/c2sccc2C)nc2ccccc2c1=O
4. COCCNC(=O)C1CCC(Cn2c(=S)[nH]c3ccccc3c2=O)CC1 (configuration not stated)
5. O=C(NCc1ccccc1)C(c1cccnc1)N(C(=O)c1ccccn1)c1ccc(F)cc1 (configuration not stated)
6. Cc1ccccc1Nc1nc(NCc2ccco2)c2ccccc2n1
7. C[N+](C)(C)CCCCCCCCCC[N+](C)(C)C

**A:**
[-1.37, -7.04, -15.1, 4.17, 2.95, 25.6, -6.25]

Report inhibition for each item below.
1. Fc1ccccc1-c1nc(NCc2ccco2)c2ccccc2n1
2. COc1ccccc1Nc1nc(NCc2ccco2)c2ccccc2n1
3. CCN(CC)CC(=O)Nc1ccc(-c2ccc(NC(=O)CN(CC)CC)c(OC)c2)cc1OC
4. O=S(=O)(NCC(c1ccc2c(c1)OCO2)N1CCOCC1)c1ccc(Cl)cc1 (configuration not stated)
5. COc1ccc(S(=O)(=O)NCC(=O)N(CC(=O)NCc2ccco2)Cc2ccc(F)cc2)cc1
6. O=C(Nc1c2c(nn1-c1cccc(Cl)c1)CS(=O)(=O)C2)C1CC1

**A:**
1. -13.7
2. 48
3. -5.12
4. -2.72
5. 6.01
6. -4.19

Answer for every listed entry: what is its inhibition? The entries follow.
1. Oc1ccccc1Nc1nc(NCc2ccccc2)c2ccccc2n1
2. C[N+](C)(C)CCCCCC[N+](C)(C)C
3. CCOc1ccc2nc(NC(=O)C3CCN(S(=O)(=O)c4cnc[nH]4)CC3)sc2c1

**A:**
1. -0.55
2. -9.93
3. 1.27

**Q:** inhibition for "Cc1nc(N)nc(N/N=C/c2ccccc2)n1" ?
**A:** -5.41
